- SYSTEM_TESTED: aldose reductase (Homo sapiens, UniProt P15121)
- Construct: partially purified aldose reductase enzyme obtained from human placenta; from tissue; host or cells: human placenta
- PROTOCOL: inhibition of aldose reductase enzyme activity (procedure of S. Hayman et al. as modified by K. Sestanj et al.)
- Format: biochemical
- CONDITION_CONTEXT: 10^-5 M; partially purified aldose reductase from human placenta
MEASURED_PROPERTY: inhibition at 10 µM (%)

1) CC(c1ccc(Cl)c(Cl)c1)C1C(=O)N(CC(=O)O)c2ccccc21 (stereo not drawn) [Example 7]
94
2) O=C(O)CN1C(=O)C(Cc2ccc(Cl)c(Cl)c2)c2ccccc21 (stereo not drawn) [Example 1]
92
3) O=C(O)CN1C(=O)C(Cc2ccc(Cl)c(Cl)c2)c2cc(Cl)ccc21 (stereo not drawn) [Example 2]
88
